EXPERIMENTAL_TARGET: Signal transducer and activator of transcription 1-alpha/beta (Homo sapiens)
TEST_DESCRIPTION: STAT1 reporter inhibitors, potency curves, dose response, counter-screen for STAT3 inhibitor project, cell-based, NIH 3T3, luciferase reporter (AID 1411)
ASSAY_CONDITIONS: NIH 3T3 fibroblasts, counterscreen
Active and inactive are the calls of the source. The rule behind the calls is not given here.
QUANTITY: IC50

- O=C(Nc1cccc(O)c1)C(=O)Nc1ccccn1: inactive
- CCOC(=O)C1=C(Cc2ccc(C)cc2)C(=O)c2ccccc2C1=O: > 55.7 µM (inactive)
- C[C@H]1CCC[C@@H](O)CCC/C=C/c2cc(O)cc(O)c2C(=O)O1: > 55.7 µM (inactive)
- COc1ccc(CC(=O)Nc2cccc(SC)c2)cc1OC: > 55.7 µM (inactive)

Query: So what does the record say about IC50 for `NNC(=O)c1cccc(COc2ccccc2Br)c1` ?
Response: inactive

Query: So what does the record say about IC50 for `O=C(Nc1ccc(N2CCOCC2)nc1)c1ccc(C(F)(F)F)cc1` ?
Response: > 55.7 µM (inactive)
